# Test system: Staphylococcus aureus
# assaySummary: Inhibition of efflux pump in Gram-positive methicillin and oxacillin-resistant Staphylococcus aureus ATCC 43300 assessed as relative fluorescence index using ethidium bromide as substrate at 100 uM and measured after 1 hr by fluorescence based microtiter plate reader analysis
# Assay type: functional
Assign class 1 whenever Activity does not fall below 0.1; assign class 0 whenever it does.

Worked examples follow.
{"columns": ["compound", "studyTarget", "labelClass"],
 "data": [
  ["CCOC(=O)[C@H]1c2c(ccc3ccccc23)O[C@@H]2c3ccccc3CCN21 (relative stereo)", "Staphylococcus aureus", "class 1"],
  ["CCOC(=O)[C@H]1c2ccc3ccccc3c2O[C@@H]2c3[nH]c4ccccc4c3CCN21 (relative stereo)", "Staphylococcus aureus", "class 1"],
  ["CCOC(=O)[C@H]1c2ccc3ccccc3c2O[C@@H]2c3ccccc3CCN21 (relative stereo)", "Staphylococcus aureus", "class 1"],
  ["CCOC(=O)C(c1c(O)ccc2ccccc12)N1CCOCC1 (stereo not drawn)", "Staphylococcus aureus", "class 0"],
  ["CCOC(=O)C(c1ccc2ccccc2c1O)N1CCOCC1 (stereo not drawn)", "Staphylococcus aureus", "class 0"]
]}

Is the recorded value of Activity equal to or greater than 0.1 for this compound? CCOC(=O)[C@H]1c2ccc3ccccc3c2O[C@@H]2c3ccsc3CCN21 (relative stereo)
class 1

Also CCOC(=O)[C@H]1c2c(ccc3ccccc23)O[C@@H]2c3[nH]c4ccccc4c3CCN21 (relative stereo) ?
class 0

Also CCOC(=O)[C@H]1c2c(ccc3ccccc23)O[C@@H]2c3ccsc3CCN21 (relative stereo) ?
class 1
